Biological target: Vibrio fischeri luciferase (VfLuc) (Aliivibrio fischeri, UniProt P19907)
Construct: commercial Vibrio fischeri luciferase (Sigma-Aldrich L8507), with FMN reductases; with luciferase beta subunit (LuxB)
Sequence (P19907 whole entry): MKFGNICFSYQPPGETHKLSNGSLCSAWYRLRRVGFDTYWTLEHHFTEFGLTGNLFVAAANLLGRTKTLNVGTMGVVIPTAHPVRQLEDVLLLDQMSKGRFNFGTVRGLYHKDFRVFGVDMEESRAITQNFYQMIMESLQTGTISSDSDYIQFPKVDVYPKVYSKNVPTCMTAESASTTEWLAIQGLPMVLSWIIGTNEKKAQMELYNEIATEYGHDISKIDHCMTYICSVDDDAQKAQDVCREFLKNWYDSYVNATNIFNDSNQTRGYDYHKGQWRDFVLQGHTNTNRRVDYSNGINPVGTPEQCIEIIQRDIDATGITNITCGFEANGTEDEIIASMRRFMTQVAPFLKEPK
Sequence (P19908 whole entry partner): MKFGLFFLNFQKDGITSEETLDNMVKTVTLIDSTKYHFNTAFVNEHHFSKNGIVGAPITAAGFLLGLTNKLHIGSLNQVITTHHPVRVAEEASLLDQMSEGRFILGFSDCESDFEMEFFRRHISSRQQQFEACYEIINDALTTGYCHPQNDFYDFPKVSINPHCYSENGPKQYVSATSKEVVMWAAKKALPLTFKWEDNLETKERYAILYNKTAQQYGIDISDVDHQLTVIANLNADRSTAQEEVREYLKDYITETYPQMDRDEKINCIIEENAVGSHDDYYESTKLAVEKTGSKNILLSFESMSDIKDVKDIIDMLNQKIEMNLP
Assay: luminescence enzyme assay, coupled with FMN reductase, 12-point titration
PARAMETER: IC50 (µM)
Return type: number; implicit unit µM.

stdin: Item COC(=O)/C=C/OC1c2ccccc2-c2ccccc21 has what recorded IC50?
stdout: 191
